The values you see were collected from ChEMBL document CHEMBL3862032.

For each entry below, report its pIC50 value.
protocol.details: Cytotoxicity against MDR1 deficient human KB cells assessed as decrease in cell viability after 4 days by MTS assay
Type: functional, cell-based
condition.context: 96 h
Answers are plain numbers, as −log10 of the molar value.

State the recorded pIC50 for every item in the following list.
1. CC[C@H](C)[C@H](NC(=O)[C@@]1(C)CCCN1C)C(=O)N(C)[C@H](C[C@@H](OC(C)=O)c1nc(C(=O)N[C@@H](Cc2ccccc2)C[C@H](C)C(=O)OC)cs1)C(C)C
2. CC[C@H](C)[C@H](NC(=O)[C@@]1(C)CCCN1C)C(=O)N(C)[C@H](C[C@@H](OC(C)=O)c1nc(C(=O)N[C@H](CNS(C)(=O)=O)Cc2ccccc2)cs1)C(C)C

8.98
8.27

Any idea what its pIC50 is? The compound is `CC[C@H](C)[C@H](NC(=O)[C@@]1(C)CCCN1C)C(=O)N(C)[C@H](C[C@@H](O)c1nc(C(=O)N[C@@H](Cc2ccc(N)cc2)C[C@H](C)C(=O)O)cs1)C(C)C` 6.11

----------
For each entry below, report its log10 of IC50 value.
protocol.details: Cytotoxicity against human KB 8.5 cells expressing MDR1 assessed as decrease in cell viability after 4 days by MTS assay
Type: functional, cell-based
condition.context: KB 8.5, 96 h
Values reflect log10 of reported IC50 (µM).

Use the examples below as a reference point.
{"compound.smiles": "CC[C@H](C)[C@H](NC(=O)[C@H]1CCCCN1C)C(=O)N(C)[C@H](C[C@@H](OC(C)=O)c1nc(C(=O)N[C@@H](Cc2ccccc2)C(=O)N2CCCCC2)cs1)C(C)C", "log10 of IC50": -1.70}
{"compound.smiles": "CC[C@H](C)[C@H](NC(=O)[C@H]1CCCCN1C)C(=O)N(C)[C@H](C[C@@H](OC(C)=O)c1nc(C(=O)N[C@@H](Cc2ccccc2)C[C@H](C)C(=O)O)cs1)C(C)C", "log10 of IC50": -2.96}
{"compound.smiles": "CC[C@H](C)[C@H](NC(=O)[C@@H]1C[C@@H](O)CN1C)C(=O)N(C)[C@H](C[C@@H](OC(C)=O)c1nc(C(=O)N[C@@H](Cc2ccccc2)C[C@H](C)C(=O)OC)cs1)C(C)C", "log10 of IC50": -0.10}

State the recorded log10 of IC50 for every item in the following list.
1. CC[C@H](C)[C@H](NC(=O)[C@H]1CCCCN1C)C(=O)N(C)[C@H](C[C@@H](OC(C)=O)c1nc(C(=O)NCCc2cscn2)cs1)C(C)C
2. CC[C@H](C)[C@H](NC(=O)[C@@]1(C)CCCN1C)C(=O)N(C)[C@H](C[C@@H](OC(C)=O)c1nc(C(=O)N[C@@H](Cc2ccccc2)c2nccs2)cs1)C(C)C

1: -1.76; 2: -0.98

----------
protocol.details: Cytotoxicity against human KB 8.5 cells expressing MDR1 assessed as decrease in cell viability after 4 days by MTS assay
Format: functional, cell-based
condition.context: KB 8.5, 96 h
reported.metric: pIC50
One number for each entry, as −log10 of the molar value.

{"compound.smiles": "CC[C@H](C)[C@H](NC(=O)[C@H]1CCCCN1C)C(=O)N(C)[C@H](C[C@@H](OC(C)=O)c1nc(C(=O)N[C@@H](Cc2ccccc2)C[C@H](C)C(=O)OC)cs1)C(C)C", "reported.metric": "pIC50", "measured.value": 9.15}

Would you kindly look at the next entry?
Any idea what its pIC50 is? The compound is `CC[C@H](C)[C@H](NC(=O)C(C)(C)N(C)C)C(=O)N(C)[C@H](C[C@@H](OC(C)=O)c1nc(C(=O)N[C@@H](Cc2ccccc2)C[C@H](C)C(=O)OC)cs1)C(C)C` 7.27

----------
protocol.details: Cytotoxicity against human KB 8.5 cells expressing MDR1 assessed as decrease in cell viability after 4 days by MTS assay
Assay type: functional, cell-based
condition.context: KB 8.5, 96 h
pIC50: −log10 of the molar value.
Label rule, in plain words: pIC50 of 7 and up is class 1, under 7 is class 0.

Consider the following illustrative entries.
{"compound.smiles": "CCNC(=O)O[C@H](C[C@H](C(C)C)N(C)C(=O)[C@@H](NC(=O)[C@@]1(C)CCCN1C)[C@@H](C)CC)c1nc(C(=O)N[C@@H](Cc2ccc(N)cc2)C[C@H](C)C(=O)O)cs1", "category.label": "class 1"}
{"compound.smiles": "CC[C@H](C)[C@H](NC(=O)[C@@]1(C)CCCN1C)C(=O)N(C)[C@H](C[C@@H](OC(C)=O)c1nc(C(=O)NCCc2cscn2)cs1)C(C)C", "category.label": "class 0"}
{"compound.smiles": "CC[C@H](C)[C@H](NC(=O)[C@@]1(C)CCCN1C)C(=O)N(C)[C@H](C[C@@H](OC(C)=O)c1nc(C(=O)N[C@@H](Cc2ccc(N)cc2)C[C@H](C)C(=O)O)cs1)C(C)C", "category.label": "class 1"}

Is the recorded value of pIC50 equal to or greater than 7 for this compound? `CC[C@H](C)[C@H](NC(=O)[C@@]1(C)CCCN1C)C(=O)N(C)[C@H](C[C@@H](OC(C)=O)c1nc(C(=O)NCCn2nnc3ccccc32)cs1)C(C)C` class 1

----------
protocol.details: Cytotoxicity against human MDA-MB-361/DYT2 cells assessed as decrease in cell viability after 4 days by MTS assay
Assay type: functional, cell-based
condition.context: MDA-MB-361, 96 h
Please assign Not satisfied whenever IC50 is at or above 6 nM, and Satisfied whenever it is below.

{"compound": "CC[C@H](C)[C@H](NC(=O)[C@H](NC)C(C)C)C(=O)N(C)[C@H](C[C@@H](OC(C)=O)c1nc(C(=O)N[C@@H](Cc2ccccc2)C[C@H](C)C(=O)OC)cs1)C(C)C", "category.label": "Satisfied"}
{"compound": "CC[C@H](C)[C@H](NC(=O)[C@H]1CCCCN1C)C(=O)N(C)[C@H](C[C@@H](OC(C)=O)c1nc(C(=O)NCCc2cscn2)cs1)C(C)C", "category.label": "Not satisfied"}

Shifting focus to the compound that follows.
Is the reported IC50 for `CC[C@H](C)[C@H](NC(=O)[C@@]1(C)CCCN1C)C(=O)N(C)[C@H](C[C@@H](OC(C)=O)c1nc(C(=O)N[C@@H](Cc2ccccc2)C[C@H](C)C(=O)OC)cs1)C(C)C` strictly below 6 nM? Satisfied

----------
protocol.details: Cytotoxicity against human KB 8.5 cells expressing MDR1 assessed as decrease in cell viability after 4 days by MTS assay
Format: functional, cell-based
condition.context: KB 8.5, 96 h
reported.metric: pIC50
Answers are plain numbers, as −log10 of the molar value.

Use the examples below as a reference point.
{"compound": "CC[C@H](C)[C@H](NC(=O)[C@H]1CCCCN1C)C(=O)N(C)[C@H](C[C@@H](OC(C)=O)c1nc(C(=O)NCCn2nnc3ccccc32)cs1)C(C)C", "pIC50": 7.81}
{"compound": "CC[C@H](C)[C@H](NC(=O)[C@@]1(C)CCCN1)C(=O)N(C)[C@H](C[C@@H](OC(C)=O)c1nc(C(=O)N[C@@H](Cc2ccccc2)C[C@H](C)C(=O)OC)cs1)C(C)C", "pIC50": 6.75}

State the recorded pIC50 for every item in the following list.
1. CC[C@H](C)[C@H](NC(=O)[C@@]1(C)CCCN1C)C(=O)N(C)[C@H](C[C@@H](OC(C)=O)c1nc(C(=O)N[C@@H](Cc2ccccc2)C[C@H](C)C(=O)OC)cs1)C(C)C
2. CC[C@H](C)[C@H](NC(=O)[C@@]1(C)CCCN1C)C(=O)N(C)[C@H](C[C@@H](OC(C)=O)c1nc(C(=O)N[C@@H](Cc2ccccc2)C(O)c2nccs2)cs1)C(C)C (mixture of isomers)

[8.26, 7.40]

Any idea what its pIC50 is? The compound is `CC[C@H](C)[C@H](NC(=O)[C@H]1CCCN1C)C(=O)N(C)[C@H](C[C@@H](OC(C)=O)c1nc(C(=O)N[C@@H](Cc2ccccc2)C[C@H](C)C(=O)OC)cs1)C(C)C` 8.10

----------
protocol.details: Cytotoxicity against MDR1 deficient human KB cells assessed as decrease in cell viability after 4 days by MTS assay
Assay type: functional, cell-based
condition.context: 96 h
For each entry below, report its pIC50 value.
Numbers only, as −log10 of the molar value.

{"compound.smiles": "CC[C@H](C)[C@H](NC(=O)[C@H]1CCCCN1C)C(=O)N(C)[C@H](C[C@@H](OC(C)=O)c1nc(C(=O)N[C@@H](Cc2ccccc2)c2nccs2)cs1)C(C)C", "reported.metric": "pIC50", "measured.value": 8.45}

State the recorded pIC50 for every item in the following list.
1. CC[C@H](C)[C@H](NC(=O)[C@@H]1C[C@@H](O)CN1C)C(=O)N(C)[C@H](C[C@@H](OC(C)=O)c1nc(C(=O)N[C@@H](Cc2ccccc2)C[C@H](C)C(=O)OC)cs1)C(C)C
2. CC[C@H](C)[C@H](NC(=O)[C@@]1(C)CCCN1C)C(=O)N(C)[C@H](C[C@@H](OC(C)=O)c1nc(C(=O)NCCn2nnc3ccccc32)cs1)C(C)C

1. 7.65
2. 7.94
